The reported numbers originate from patent US20260015341A1.

- Assay explanation: Pharmacokinetics in rats
- Format: in vivo, SD rats
- Details: male, SD, plasma; rat, iv (tail vein injection), 1 mg/kg
Result type: half-life (h)

Cc1cc([C@@H](C)Nc2ccc(Cl)nc2C(=O)O)c2nc(-c3ccccc3)n(C)c(=O)c2c1	3.79
C[C@@H](Nc1ccc(Cl)nc1C(=O)O)c1cc(F)cc2c(=O)n(C)c(-c3ccc(F)cn3)nc12	2.73
Cc1cc([C@@H](C)Nc2ccc(Cl)nc2C(=O)O)c2nc(-c3ccc(F)cn3)n(C)c(=O)c2c1	3.44
Cc1cc([C@@H](C)Nc2ccc(Cl)nc2C(=O)O)c2nc(-c3ccc(F)cc3)n(C)c(=O)c2c1	2.95
